Tested on: PEG-3
experiment-notes: Peg3 promoter luciferase inhibitors, potency, dose response, cell-based, HeLa, CREF/GAPDH counter-screen panel (AID 624167)
experimental-parameters: HeLa PEG-Prom luciferase reporter, overnight, CREF/GAPDH counter-screens, run 1, dose range 1, individual replicate IC50 per panel
As shown below, each of these compounds has a reported IC50 value.
property-label: IC50 (µM)

> print(dat)
                                   compound  result.unit  assay.value
1  CC1(C)Cc2c(C#N)c(N3CCNCC3)nc(-c3ccco3)c2CS1           µM         22.7
2         Cc1ccccc1OCC(=O)Nc1cccc(C(=O)O)c1           µM          1.6
3  CCC(=O)NC(c1cccs1)c1cc(Cl)c2cccnc2c1O (stereo not given)           µM         4.97
4  C[C@@H]1C[C@@H]([C@H](O)CC2CC(=O)NC(=O)C2)C(=O)[C@@H](C)C1           µM         1.65
5  NC(=O)c1nsc(C(=O)N(c2ccccc2F)C(C(=O)NCc2ccccc2)c2ccc(O)cc2)c1N (stereo not given)           µM         39.4

---

tested-system: PEG-3 (UniProt Q6IN02)
Sequence (Q6IN02 whole entry, looked up): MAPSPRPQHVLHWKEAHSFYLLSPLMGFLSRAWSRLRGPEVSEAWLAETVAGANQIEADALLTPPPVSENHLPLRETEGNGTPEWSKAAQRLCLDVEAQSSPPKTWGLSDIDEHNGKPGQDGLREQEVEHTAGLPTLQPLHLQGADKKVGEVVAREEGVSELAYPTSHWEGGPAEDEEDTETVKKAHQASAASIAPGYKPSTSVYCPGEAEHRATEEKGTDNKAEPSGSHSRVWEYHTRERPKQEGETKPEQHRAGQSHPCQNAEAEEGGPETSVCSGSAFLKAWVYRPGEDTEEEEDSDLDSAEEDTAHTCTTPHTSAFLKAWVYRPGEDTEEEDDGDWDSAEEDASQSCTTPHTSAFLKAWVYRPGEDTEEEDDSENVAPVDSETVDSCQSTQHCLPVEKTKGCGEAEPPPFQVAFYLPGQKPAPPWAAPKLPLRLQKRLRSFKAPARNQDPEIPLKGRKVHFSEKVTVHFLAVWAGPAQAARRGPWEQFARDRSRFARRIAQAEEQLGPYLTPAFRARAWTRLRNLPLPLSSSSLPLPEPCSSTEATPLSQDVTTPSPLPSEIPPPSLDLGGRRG
experiment-notes: Peg3 promoter luciferase inhibitors, potency, dose response, cell-based, HeLa, CREF/GAPDH counter-screen panel (AID 624167)
experimental-parameters: HeLa PEG-Prom luciferase reporter, overnight, CREF/GAPDH counter-screens, mean of runs
The source made the active and inactive calls.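 Rule for the calls: active = mean IC50 for reducing PEG3 promoter reporter signal at or below a set limit, with IC50 above the limit in both counter screens; inactive = the rest, including counter screen hits.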
Labels: 1 (active), -1 (inactive)

> print(dat)
                                    compound  group.label
 1  Cc1ccc2sc(N(CCCN(C)C)C(=O)c3ccc(S(=O)(=O)N4CCc5ccccc5C4)cc3)nc2c1C            1
 2  NC(Cc1ccc(F)cc1)c1csc(Nc2cc(Oc3ccccc3)ncn2)n1 (centres undefined)            1
 3  Cc1ccc(S(=O)(=O)c2nc(-c3ccccc3Cl)oc2N(C)C2CCN(C)CC2)cc1           -1
 4  COc1cc(C(=O)N/N=C(\c2ccccc2)c2ccccn2)cc(OC)c1OC            1
 5  CCCCCCCCCCCCCCCC(O)C[N+](C)(C)CCO (centres undefined)            1
 6        c1cc2c(cc1C1=NNC(=NC3CC3)SC1)OCCO2            1
 7  Cc1ccc(-n2cc(-c3ccccc3)c3c(N4CCOCC4)ncnc32)cc1            1
 8  Cc1ccccc1OCC(O)CNC1CCC(NCC(O)COc2ccccc2C)CC1 (centres undefined)            1
 9            COc1ccc(CCN2C(=O)C=CC2=O)cc1OC            1
10  O=C(Nc1ccc(S(=O)(=O)NC2=NCCCCC2)cc1)c1ccc([N+](=O)[O-])s1            1
11         COc1ccc2c(c1)sc1nc(-c3ccccc3)cn12            1
12  CCCc1cc(=O)n2[nH]c(C)c(-c3ccc(Cl)cc3)c2n1            1
13      Cc1ccc2cc3c(N)c4c(C)ccc(C)c4nc3nc2c1           -1
14         CCOC(=O)c1cnc(Nc2nc3ccccc3o2)nc1C            1
15  C[C@@H](NCCCn1cnc2c(OCc3ccccc3)ncnc21)c1cccc2ccccc12            1
16  COc1ccccc1CNCC(O)Cn1c2ccccc2c2ccccc21 (centres undefined)            1
17             CC1CCN(c2ccc(-c3cccs3)nn2)CC1            1
18        COC1=CC(=O)c2c(ccc3ncnc(N)c23)C1=O            1
19  CN(C)CCNC(=O)c1sc2nc(-c3ccccc3)cc(C(F)(F)F)c2c1N           -1
20             Cc1ccc(S(=O)(=O)CCSC(=N)N)cc1           -1
21  CC(C)NC(=O)NC(=O)COC(=O)c1c2c(nc3ccccc13)CCC2           -1
22  CCN(CC)CCSc1nnc2c3cc(C)ccc3n(Cc3ccccc3)c2n1           -1
23  O=[N+]([O-])c1ccc(NC2CCN(Cc3ccccc3)CC2)c2ccncc12           -1
24        O=C(Nc1ccccc1)NN(C(=O)CCl)c1ccccc1            1
25  CCN1C(=O)C(=Cc2cccc(OC)c2Oc2ccc([N+](=O)[O-])cc2[N+](=O)[O-])SC1=S           -1
26  CS(=O)(=O)c1ccc2nc(NC(=O)CCS(=O)(=O)c3ccccc3)sc2c1           -1
27  COc1cccc2sc(N(CCCN(C)C)C(=O)C(c3ccccc3)c3ccccc3)nc12            1
28  C[C@@H]1[C@H]2[C@@H]3CC[C@@H](C3)[C@H]2CN[C@H]1c1cn(Cc2ccccc2)c2ccccc12           -1
29          CCOc1ccc2nc(NC(=O)c3ccccn3)sc2c1           -1
30   CCCc1nc2oc3c(NCCCN(C)C)ncnc3c2c2c1CCCC2            1
31  O=C1NC(=O)N(Cc2ccccc2)C(=O)/C1=C\C=C\c1ccco1            1
32       CCOc1ccc(C(=O)O/N=C(\N)c2ccccn2)cc1            1
33  Cc1ccc(N(Cc2cc(=O)[nH]c3ccccc23)C(=O)CCl)c(C)c1           -1
34           O=C(Nc1nc2ccccc2[nH]1)c1ccccc1F            1
35  Cc1c(OCC(=O)NC2CC(C)(C)NC(C)(C)C2)ccc2c1oc(=O)c1ccccc12           -1
36  c1cncc(-c2nc(NCC3COc4ccccc4O3)c3ccccc3n2)c1 (centres undefined)           -1
37  CN(C)CCNc1ncnc2c1sc1nc(N3CCOCC3)c3c(c12)CC(C)(C)SC3            1
38  COc1cc2c(cc1OC)CN(c1nc(-c3cccnc3)nc3ccccc13)CC2           -1
39  O=C(Nc1ccc([N+](=O)[O-])cc1)C(=O)Nc1cccc(C(=O)O)c1            1
40  O=C(Nc1cc(S(=O)(=O)N2CCOCC2)ccc1Cl)c1cc([N+](=O)[O-])ccc1Cl            1
41  O=C(Nc1ccc(-c2nc3ccccc3o2)cc1)c1ccc(N2CCOCC2)c([N+](=O)[O-])c1           -1
42  O=C1NC(=O)N(Cc2ccc(F)cc2)C(=O)/C1=C\C=C\c1ccco1            1
43  CCCC(=O)NC(c1ccc(C)cc1)c1ccc2cccnc2c1O (centres undefined)            1
44     Cc1nc(C)c(C(=O)N/N=C/c2cc(Br)ccc2O)s1           -1

---

tested-system: PEG-3 (UniProt Q6IN02)
experiment-notes: Peg3 promoter luciferase inhibitors, potency, dose response, cell-based, HeLa, CREF/GAPDH counter-screen panel (AID 624167)
experimental-parameters: HeLa PEG-Prom luciferase reporter, overnight, CREF/GAPDH counter-screens, mean of runs
Active and inactive are the calls of the source.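 The calls were made as follows: active = mean IC50 for reducing PEG3 promoter reporter signal at or below a set limit, with IC50 above the limit in both counter screens; inactive = the rest, including counter screen hits.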
Labels: Y for active, N for inactive

> print(dat)
                                    molecule  group.label
 1  Cc1nn(C(C)(C)C)c(C)c1/C=N/OC(=O)Nc1ccc(Cl)cc1            Y
 2  Cc1cc(-n2c(SCC(=O)Nc3ccc(F)c(F)c3)nc3n[nH]c(C)c3c2=N)ccc1Cl            N
 3  CCc1ccc2c(c1)Sc1ccccc1CC2N1CCN(C)CC1 (stereo not drawn)            N
 4  CCC(C)Cn1c(O)cc2nn(-c3nc4ccccc4s3)c(=O)c-2c1C (stereo not drawn)            Y
 5  CCc1cccc(CC)c1NC(=S)NCCc1c(C)[nH]c2ccc(C)cc12            N
 6  O=C(O)CN1C(=O)/C(=C\c2ccccc2OCc2ccc(Cl)cc2Cl)SC1=S            Y
 7  N=c1n(CC(=O)c2ccc([N+](=O)[O-])cc2)c2ccccc2n1Cc1ccc(Cl)cc1            Y
 8  CCCCCCCCCCCCCCC(O)C[N+](C)(CCO)CCO (stereo not drawn)            Y
 9  COc1ccc(-n2cc(CNC3CCN(C)CC3)c(-c3cccc(F)c3)n2)cc1            N
10  CN1CCC(NC(=O)c2cc(-c3cccc(Br)c3)nc3ccccc23)CC1            Y
11  COc1ccc2c(c1)[nH]c1c(=O)n(/N=C/C3C(C)C=C(C)CC3C)c(=O)[nH]c12 (stereo not drawn)            N
12  CC(=O)NC(c1ccccc1)c1cc(Cl)c2cccnc2c1O (stereo not drawn)            Y
13  Cc1cccc(OCC(=O)NCC(=O)N/N=C/c2cc(Br)cc(Br)c2O)c1            Y
14  c1ccc(CCCNCCCn2cnc3c(OCc4ccccc4)ncnc32)cc1            N
15  Cc1ccc(NC(=S)NC(=O)c2ccc(F)cc2)cc1S(=O)(=O)Nc1ccccc1Cl            Y
16  CCOc1cccc2sc(N(CCCN(C)C)C(=O)c3ccc(S(=O)(=O)N(C)Cc4ccccc4)cc3)nc12            Y
17  Oc1[nH]c2ccc(Br)cc2c1N=NC(=S)Nc1ccc(F)cc1            Y
18   CN(C)CCNc1ccc2nnn3c4ccc(O)cc4c(=O)c1c23            N
19  CCCS(=O)(=O)c1cnc(C2COc3ccccc3O2)nc1N (stereo not drawn)            Y
20  O=C(c1ccco1)N1CCN(C(c2ccccc2Cl)c2nnnn2Cc2cccs2)CC1 (stereo not drawn)            N
21         O=C(NCCc1ccccc1)c1ccc2c(c1)OCCCO2            Y
22           O=C(COc1ccc2c(c1)CCC2)Nc1ccccn1            Y
23  COc1cc(CNCCN2CCOCC2)ccc1OCc1ccc(Cl)cc1Cl            Y
24      Cc1ccc(-c2cc3c(nn2)-c2ccccc2C3=O)cc1            Y
25  O=C(CSC1c2ccccc2-c2ccccc21)N/N=C/c1ccccc1O            N
26  CCN1CCc2c(sc(NC(=O)c3ccc(S(=O)(=O)N4CCCCCC4)cc3)c2C(=O)NC)C1            N
27  COc1ccc(CNCCc2c(C)[nH]c3ccc(OC(F)(F)F)cc23)c(OC)c1            Y
28  Cc1cc(C)c(CN2CCN(CCCn3cnc(C(=O)Nc4ccc(C)c(C)c4)n3)CC2)c(C)c1            Y
29      COC(=O)c1c(N)sc(C(=O)NCCc2ccccc2)c1C            Y
30  COc1ccc(CCNC(=O)C(=O)NCC2CCCN2S(=O)(=O)c2ccccc2)cc1OC (stereo not drawn)            N
31  CCCCCCCNC(=O)C1(CC2CC(c3ccccc3)=NO2)CCNCC1 (stereo not drawn)            N
32  COc1cccc(/C=N/NC(=O)c2c(C)nc3ccc(Cl)cn23)c1O            Y
33  CCC(C)Sc1ccc(-c2nc3ccccn3c2NCc2ccccc2)cc1OC (stereo not drawn)            N
34           Cc1ccc(C(=O)Nc2cnc3ccccc3c2)cc1            Y
35  Brc1ccc(N/N=C(/N=Nc2nn[nH]n2)c2ccccc2)cc1            Y
36  COC(=O)c1cn(NC(=O)c2cc([N+](=O)[O-])ccc2F)c(=O)c2ccccc12            N
37  Cc1ccc(OCC(=O)c2cc(C)n(Cc3ccco3)c2C)c([N+](=O)[O-])n1            Y
38  COc1ccc(CC(=O)N(Cc2ccccc2)c2ccccc2)cc1S(=O)(=O)N1CCOCC1            N
39  CN1CCC(N(C)S(=O)(=O)c2ccc(NC(=O)COc3ccc(Br)cc3Cl)cc2)CC1            Y
40  CCN(c1ccccc1)S(=O)(=O)c1ccc(C(=O)N(CCCN(C)C)c2nc3cc4c(cc3s2)OCO4)cc1            N
41  COc1ccc(C(O)(CC(C)C)C(CN2CCOCC2)c2ccccc2)cc1 (stereo not drawn)            N
42  CS(=O)(=O)c1ccc(-c2sc3ccccc3c2C#CCCO)cc1            Y
43     CC(C)(C)c1ccc(Cn2c(=O)cnc3ccccc32)cc1            N
